# measurement-target: JAK1 (Homo sapiens)
# Construct: 5 μl of catalytic domain recombinant Kinase enzyme+Tyr peptide substrate (Invitrogen, CA)
# Sequence (P23458 875-1153 limits assumed): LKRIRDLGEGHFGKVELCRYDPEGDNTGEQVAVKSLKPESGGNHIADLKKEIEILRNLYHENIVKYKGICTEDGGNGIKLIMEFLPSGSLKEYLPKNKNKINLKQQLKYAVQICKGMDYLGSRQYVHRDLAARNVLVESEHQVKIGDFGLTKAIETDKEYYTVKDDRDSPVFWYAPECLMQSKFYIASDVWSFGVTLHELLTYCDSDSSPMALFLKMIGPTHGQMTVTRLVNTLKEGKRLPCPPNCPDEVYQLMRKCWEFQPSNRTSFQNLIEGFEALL
# protocol: Z'-LYTE kinase assay JAK1
measurement-type: IC50

## Input Record COc1ccc(Nc2cc(Nc3ccc(C)cc3)c(C(N)=O)cn2)cc1 [Example 33] : what is its IC50 with JAK1 (Homo sapiens)?
## Output > 1 µM

## Input Hi! What's the reported IC50 for NC(=O)c1cnc(Nc2ccc3ncsc3c2)cc1NCc1ccccc1 [Example 90] on JAK1 (Homo sapiens)?
## Output > 1 µM

## Input Test system JAK1 (Homo sapiens); read-out IC50; what value for CC(=O)N1CCN(c2ccc(Nc3cc(N[C@H](C)c4ccccc4)c(C(N)=O)cn3)cc2)CC1 [Example 7] ?
## Output 0.1 to 1 µM

## Input Lab request: please report IC50 under test system JAK1 (Homo sapiens) for CCC(=O)N1CCC(c2ccc(Nc3cc(NCC4CCCC4)c(C(N)=O)cn3)cc2)CC1 [Example 176]
## Output 0.1 to 1 µM

Cited source for all entries: patent US20150353495A1
